# Stated conditions: in acetonitrile, 293.15 K
Parameter measured: solubility (mole fraction)
# output: bare number, no unit

### Prompt Give the measured solubility (mole fraction) for C=CC(=O)NC(C)(C)CS(=O)(=O)O
### Response 9.14e-05

###

# Stated conditions: in isobutanol, 288.15 K
Parameter measured: solubility (mole fraction)
# output: bare number, no unit

### Prompt Give the measured solubility (mole fraction) for C=CC(=O)NC(C)(C)CS(=O)(=O)O
### Response 0.00267

###

# Stated conditions: in isopropanol, 323.15 K
Parameter measured: solubility (mole fraction)

### Prompt Give the measured solubility (mole fraction) for C=CC(=O)NC(C)(C)CS(=O)(=O)O
### Response 0.00508

###

# Stated conditions: in ethylene glycol, 323.15 K
Parameter measured: solubility (mole fraction)
# output: bare number, no unit

### Prompt Give the measured solubility (mole fraction) for C=CC(=O)NC(C)(C)CS(=O)(=O)O
### Response 0.00757

###

# Stated conditions: in n-propanol, 313.15 K
Parameter measured: solubility (mole fraction)
# output: bare number, no unit

### Prompt Give the measured solubility (mole fraction) for C=CC(=O)NC(C)(C)CS(=O)(=O)O
### Response 0.0108

###

# Stated conditions: in n-butanol, 313.15 K
Parameter measured: solubility (mole fraction)
# output: bare number, no unit

### Prompt Give the measured solubility (mole fraction) for C=CC(=O)NC(C)(C)CS(=O)(=O)O
### Response 0.00922

###

# Stated conditions: in 1,4-dioxane, 293.15 K
Parameter measured: solubility (mole fraction)
# output: bare number, no unit

### Prompt Give the measured solubility (mole fraction) for C=CC(=O)NC(C)(C)CS(=O)(=O)O
### Response 0.000168

###

# Stated conditions: in methanol, 308.15 K
Parameter measured: solubility (mole fraction)

### Prompt Give the measured solubility (mole fraction) for C=CC(=O)NC(C)(C)CS(=O)(=O)O
### Response 0.0193

###

# Stated conditions: in acetone, 328.15 K
Parameter measured: solubility (mole fraction)
# output: bare number, no unit

### Prompt Give the measured solubility (mole fraction) for C=CC(=O)NC(C)(C)CS(=O)(=O)O
### Response 0.0244

###

# Stated conditions: in ethyl acetate, 293.15 K
Parameter measured: solubility (mole fraction)
# output: bare number, no unit

### Prompt Give the measured solubility (mole fraction) for C=CC(=O)NC(C)(C)CS(=O)(=O)O
### Response 0.00198

###

# Stated conditions: in cyclohexane, 303.15 K
Parameter measured: solubility (mole fraction)
# output: bare number, no unit

### Prompt Give the measured solubility (mole fraction) for C=CC(=O)NC(C)(C)CS(=O)(=O)O
### Response 0.000229

###

# Stated conditions: in isopropanol, 303.15 K
Parameter measured: solubility (mole fraction)

### Prompt Give the measured solubility (mole fraction) for C=CC(=O)NC(C)(C)CS(=O)(=O)O
### Response 0.00129

###

# Stated conditions: in acetonitrile, 328.15 K
Parameter measured: solubility (mole fraction)

### Prompt Give the measured solubility (mole fraction) for C=CC(=O)NC(C)(C)CS(=O)(=O)O
### Response 0.00237

###

# Stated conditions: in 1,4-dioxane, 313.15 K
Parameter measured: solubility (mole fraction)
# output: bare number, no unit

### Prompt Give the measured solubility (mole fraction) for C=CC(=O)NC(C)(C)CS(=O)(=O)O
### Response 0.000978

###

# Stated conditions: in isopropanol, 328.15 K
Parameter measured: solubility (mole fraction)
# output: bare number, no unit

### Prompt Give the measured solubility (mole fraction) for C=CC(=O)NC(C)(C)CS(=O)(=O)O
### Response 0.00671

###

# Stated conditions: in ethanol, 313.15 K
Parameter measured: solubility (mole fraction)
# output: bare number, no unit

### Prompt Give the measured solubility (mole fraction) for C=CC(=O)NC(C)(C)CS(=O)(=O)O
### Response 0.0161

###

# Stated conditions: in n-butanol, 288.15 K
Parameter measured: solubility (mole fraction)

### Prompt Give the measured solubility (mole fraction) for C=CC(=O)NC(C)(C)CS(=O)(=O)O
### Response 0.00403

###

# Stated conditions: in acetonitrile, 288.15 K
Parameter measured: solubility (mole fraction)
# output: bare number, no unit

### Prompt Give the measured solubility (mole fraction) for C=CC(=O)NC(C)(C)CS(=O)(=O)O
### Response 5.19e-05

###

# Stated conditions: in isopropanol, 313.15 K
Parameter measured: solubility (mole fraction)
# output: bare number, no unit

### Prompt Give the measured solubility (mole fraction) for C=CC(=O)NC(C)(C)CS(=O)(=O)O
### Response 0.00266

###

# Stated conditions: in n-heptanol, 303.15 K
Parameter measured: solubility (mole fraction)

### Prompt Give the measured solubility (mole fraction) for C=CC(=O)NC(C)(C)CS(=O)(=O)O
### Response 0.00582

###

# Stated conditions: in methanol, 288.15 K
Parameter measured: solubility (mole fraction)
# output: bare number, no unit

### Prompt Give the measured solubility (mole fraction) for C=CC(=O)NC(C)(C)CS(=O)(=O)O
### Response 0.0103

###

# Stated conditions: in isobutanol, 298.15 K
Parameter measured: solubility (mole fraction)
# output: bare number, no unit

### Prompt Give the measured solubility (mole fraction) for C=CC(=O)NC(C)(C)CS(=O)(=O)O
### Response 0.00394

###

# Stated conditions: in ethylene glycol, 288.15 K
Parameter measured: solubility (mole fraction)
# output: bare number, no unit

### Prompt Give the measured solubility (mole fraction) for C=CC(=O)NC(C)(C)CS(=O)(=O)O
### Response 0.000687

###

# Stated conditions: in acetonitrile, 303.15 K
Parameter measured: solubility (mole fraction)
# output: bare number, no unit

### Prompt Give the measured solubility (mole fraction) for C=CC(=O)NC(C)(C)CS(=O)(=O)O
### Response 0.000265

###

# Stated conditions: in methanol, 298.15 K
Parameter measured: solubility (mole fraction)
# output: bare number, no unit

### Prompt Give the measured solubility (mole fraction) for C=CC(=O)NC(C)(C)CS(=O)(=O)O
### Response 0.0138

###

# Stated conditions: in isobutanol, 303.15 K
Parameter measured: solubility (mole fraction)
# output: bare number, no unit

### Prompt Give the measured solubility (mole fraction) for C=CC(=O)NC(C)(C)CS(=O)(=O)O
### Response 0.00485

###

# Stated conditions: in isopropanol, 308.15 K
Parameter measured: solubility (mole fraction)
# output: bare number, no unit

### Prompt Give the measured solubility (mole fraction) for C=CC(=O)NC(C)(C)CS(=O)(=O)O
### Response 0.00186

###

# Stated conditions: in acetone, 318.15 K
Parameter measured: solubility (mole fraction)
# output: bare number, no unit

### Prompt Give the measured solubility (mole fraction) for C=CC(=O)NC(C)(C)CS(=O)(=O)O
### Response 0.0173

###

# Stated conditions: in cyclohexane, 313.15 K
Parameter measured: solubility (mole fraction)
# output: bare number, no unit

### Prompt Give the measured solubility (mole fraction) for C=CC(=O)NC(C)(C)CS(=O)(=O)O
### Response 0.000567

###

# Stated conditions: in n-propanol, 328.15 K
Parameter measured: solubility (mole fraction)
# output: bare number, no unit

### Prompt Give the measured solubility (mole fraction) for C=CC(=O)NC(C)(C)CS(=O)(=O)O
### Response 0.0188

###

# Stated conditions: in ethylene glycol, 298.15 K
Parameter measured: solubility (mole fraction)

### Prompt Give the measured solubility (mole fraction) for C=CC(=O)NC(C)(C)CS(=O)(=O)O
### Response 0.00162

###

# Stated conditions: in ethyl acetate, 318.15 K
Parameter measured: solubility (mole fraction)
# output: bare number, no unit

### Prompt Give the measured solubility (mole fraction) for C=CC(=O)NC(C)(C)CS(=O)(=O)O
### Response 0.00672

###

# Stated conditions: in ethanol, 323.15 K
Parameter measured: solubility (mole fraction)

### Prompt Give the measured solubility (mole fraction) for C=CC(=O)NC(C)(C)CS(=O)(=O)O
### Response 0.0225

###

# Stated conditions: in n-butanol, 318.15 K
Parameter measured: solubility (mole fraction)
# output: bare number, no unit

### Prompt Give the measured solubility (mole fraction) for C=CC(=O)NC(C)(C)CS(=O)(=O)O
### Response 0.011

###

# Stated conditions: in ethylene glycol, 328.15 K
Parameter measured: solubility (mole fraction)
# output: bare number, no unit

### Prompt Give the measured solubility (mole fraction) for C=CC(=O)NC(C)(C)CS(=O)(=O)O
### Response 0.00972

###

# Stated conditions: in isopropanol, 293.15 K
Parameter measured: solubility (mole fraction)
# output: bare number, no unit

### Prompt Give the measured solubility (mole fraction) for C=CC(=O)NC(C)(C)CS(=O)(=O)O
### Response 0.00056

###

# Stated conditions: in n-heptanol, 298.15 K
Parameter measured: solubility (mole fraction)
# output: bare number, no unit

### Prompt Give the measured solubility (mole fraction) for C=CC(=O)NC(C)(C)CS(=O)(=O)O
### Response 0.00496
